Target: lipoxygenase type I-B from soybean (Glycine max)
Construct: gene LOX1.1; commercial native soybean enzyme (Sigma type I-B), full length
Sequence (P08170 1-839): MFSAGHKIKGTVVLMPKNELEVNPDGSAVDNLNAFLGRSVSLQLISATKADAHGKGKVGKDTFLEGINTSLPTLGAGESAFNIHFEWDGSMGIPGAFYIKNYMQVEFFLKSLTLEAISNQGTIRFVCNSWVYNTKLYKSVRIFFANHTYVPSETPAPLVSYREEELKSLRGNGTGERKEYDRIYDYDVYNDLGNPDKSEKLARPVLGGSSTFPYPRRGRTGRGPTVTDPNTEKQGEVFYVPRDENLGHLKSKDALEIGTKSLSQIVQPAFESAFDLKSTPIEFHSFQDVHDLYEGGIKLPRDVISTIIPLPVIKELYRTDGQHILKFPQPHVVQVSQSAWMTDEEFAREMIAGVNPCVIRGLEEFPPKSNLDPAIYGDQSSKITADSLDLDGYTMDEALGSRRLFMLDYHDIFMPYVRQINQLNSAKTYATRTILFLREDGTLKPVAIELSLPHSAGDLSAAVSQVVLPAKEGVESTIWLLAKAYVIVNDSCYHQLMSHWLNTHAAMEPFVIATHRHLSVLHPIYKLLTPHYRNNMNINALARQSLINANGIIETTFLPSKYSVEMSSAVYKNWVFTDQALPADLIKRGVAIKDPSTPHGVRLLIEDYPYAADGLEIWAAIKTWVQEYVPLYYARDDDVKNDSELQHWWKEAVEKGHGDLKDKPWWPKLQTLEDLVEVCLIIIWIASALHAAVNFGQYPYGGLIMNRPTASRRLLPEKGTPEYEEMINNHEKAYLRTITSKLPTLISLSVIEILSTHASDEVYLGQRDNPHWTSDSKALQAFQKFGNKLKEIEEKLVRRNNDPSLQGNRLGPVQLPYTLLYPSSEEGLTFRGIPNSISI
Experiment: UV absorbance at […] nm, linoleate oxidation
Type: biochemical
ENDPOINT: IC50 (µM)

1: COc1ccc2cc([C@H](C)C(=O)NCCC(=O)OCCO[N+](=O)[O-])ccc2c1
2: CC(C)Cc1ccc(C(C)C(=O)N2CCC[C@H]2C(=O)OCCO[N+](=O)[O-])cc1 (stereo partly shown)
3: CC(C)Cc1ccc(C(C)C(=O)NCCC(=O)OCCO[N+](=O)[O-])cc1 (racemic)
4: COc1ccc2cc([C@H](C)C(=O)N3CCC[C@H]3C(=O)OCCO[N+](=O)[O-])ccc2c1
Kindly order the items shown according to IC50, from the highest value down. Answer with the labels in sequence, matching the requested order.
2, 4, 3, 1
